Target: BRD4 (BDI_K57-E168) (Homo sapiens, UniProt O60885)
Construct: BD1: amino acids K57-E168; made in house
Test: TR-FRET bromodomain binding assay, first bromodomain of BRD4
Details: TR-FRET assay protocol G (compound 0.92 μM-15 pM); 100 nM probe
In this section, each of the compounds is paired with its reported log10 Ki.
METRIC_NAME: log10 Ki (log10 of the value in nM)

| COMPOUND | log10 Ki |
| --- | --- |
| CN1CCN(Cc2[nH]c3c(=O)n(C)cc4c3c2CN(c2ccc(Cl)cc2)c2ccc(CS(C)(=O)=O)cc2-4)CC1 | 0.00 |
| Cn1cc2c3c(c[nH]c3c1=O)CN(c1ccc(C(F)(F)F)cn1)c1ccc(CS(C)(=O)=O)cc1-2 | -0.15 |
| Cn1cc2c3c(c[nH]c3c1=O)CN(C1CCC(NC(=O)OC(C)(C)C)CC1)c1ccc(CS(C)(=O)=O)cc1-2 (stereo not drawn) [Example 197] | 0.18 |
| CCCCNC(=O)C1c2c[nH]c3c(=O)n(C)cc(c23)-c2cc(CS(C)(=O)=O)ccc2N1c1ccc(F)cc1F (stereo not drawn) | 1.60 |
| Cn1cc2c3c(c[nH]c3c1=O)CN(C1CCCOC1)c1ccc(CS(C)(=O)=O)cc1-2 (racemic) | 0.12 |
| CCNC(=O)c1[nH]c2c(=O)n(C)cc3c2c1CN(c1ccc(F)cc1F)c1ccc(CS(C)(=O)=O)cc1-3 | -0.10 |

###

Target: BRD4 (BDI_K57-E168) (Homo sapiens, UniProt O60885)
Construct: BD1: amino acids K57-E168; made in house
Assay: TR-FRET bromodomain binding assay, first bromodomain of BRD4
Conditions: TR-FRET assay protocol G (compound 0.92 μM-15 pM); 100 nM probe
# class assignment by measured Ki: LOW = under 3 nM, MEDIUM = from 3 nM up to 10 nM, HIGH = 10 nM and over

| COMPOUND | EXPERIMENTAL_SYSTEM | CLASS_LABEL |
| --- | --- | --- |
| Cc1ccc(OC(=O)N2Cc3c[nH]c4c(=O)n(C)cc(c34)-c3cc(CS(C)(=O)=O)ccc32)cc1 [Example 91] | BRD4 (BDI_K57-E168) (Homo sapiens, UniProt O60885) | MEDIUM |
| Cn1cc2c3c(c[nH]c3c1=O)C(CCNC(=O)OCc1ccccc1)N(c1ccc(F)cc1F)c1ccc(CS(C)(=O)=O)cc1-2 (racemic) [Example 229] | BRD4 (BDI_K57-E168) (Homo sapiens, UniProt O60885) | MEDIUM |
| Cn1cc2c3c(c[nH]c3c1=O)CN(CCc1ccc3c(c1)OCO3)c1c(F)cc(F)cc1-2 [Example 56] | BRD4 (BDI_K57-E168) (Homo sapiens, UniProt O60885) | HIGH |
| COC(=O)CCCCC1c2c[nH]c3c(=O)n(C)cc(c23)-c2cc(CS(C)(=O)=O)ccc2N1c1ccc(F)cc1F (stereo not shown) [Example 134] | BRD4 (BDI_K57-E168) (Homo sapiens, UniProt O60885) | HIGH |
| Cn1cc2c3c(c[nH]c3c1=O)C(C(=O)NCCCCc1ccccc1)N(c1ccc(F)cc1F)c1ccc(CS(C)(=O)=O)cc1-2 (stereo not shown) [Example 168] | BRD4 (BDI_K57-E168) (Homo sapiens, UniProt O60885) | HIGH |
| Cn1cc2c3c(c[nH]c3c1=O)CN(C(=O)c1ccc(F)cc1)c1ccc(CS(C)(=O)=O)cc1-2 [Example 100] | BRD4 (BDI_K57-E168) (Homo sapiens, UniProt O60885) | HIGH |
| CC(C)c1ccc(NC(=O)N2Cc3c[nH]c4c(=O)n(C)cc(c34)-c3cc(CS(C)(=O)=O)ccc32)cc1 [Example 69] | BRD4 (BDI_K57-E168) (Homo sapiens, UniProt O60885) | MEDIUM |
| CCN1CCCC(CN2Cc3c[nH]c4c(=O)n(C)cc(c34)-c3cc(CS(C)(=O)=O)ccc32)C1 (stereo not shown) [Example 150] | BRD4 (BDI_K57-E168) (Homo sapiens, UniProt O60885) | MEDIUM |
| Cn1cc2c3c(c[nH]c3c1=O)CN(C(=O)CC(C)(C)C)c1c(F)cc(F)cc1-2 [Example 169] | BRD4 (BDI_K57-E168) (Homo sapiens, UniProt O60885) | HIGH |
| Cn1cc2c3c(c[nH]c3c1=O)CN(c1ncc(F)cn1)c1ccc(CS(C)(=O)=O)cc1-2 [Example 258] | BRD4 (BDI_K57-E168) (Homo sapiens, UniProt O60885) | LOW |
| COC(=O)CCC1c2c[nH]c3c(=O)n(C)cc(c23)-c2cc(CS(C)(=O)=O)ccc2N1c1ccc(F)cc1F (stereo not shown) [Example 82] | BRD4 (BDI_K57-E168) (Homo sapiens, UniProt O60885) | HIGH |
| Cn1cc2c3c(c(CN4CCOCC4)[nH]c3c1=O)CN(c1ccc(Cl)cc1)c1ccc(CS(C)(=O)=O)cc1-2 [Example 193] | BRD4 (BDI_K57-E168) (Homo sapiens, UniProt O60885) | LOW |
| Cc1cnc2c(c1)-c1cn(C)c(=O)c3[nH]cc(c13)CN2c1ccc(F)cc1 [Example 11] | BRD4 (BDI_K57-E168) (Homo sapiens, UniProt O60885) | LOW |
| Cn1cc2c3c(c[nH]c3c1=O)C(CCCO)N(c1ccc(F)cc1F)c1ccc(CS(C)(=O)=O)cc1-2 (stereo not shown) [Example 142] | BRD4 (BDI_K57-E168) (Homo sapiens, UniProt O60885) | MEDIUM |
| Cn1cc2c3c(c[nH]c3c1=O)C(CN1Cc3ccccc3C1=O)N(c1ccc(F)cc1F)c1ccc(CS(C)(=O)=O)cc1-2 (stereo not shown) [Example 220] | BRD4 (BDI_K57-E168) (Homo sapiens, UniProt O60885) | HIGH |
| Cn1cc2c3c(c[nH]c3c1=O)CN(C(=O)Cc1ccccc1)c1ccc(CS(C)(=O)=O)cc1-2 [Example 108] | BRD4 (BDI_K57-E168) (Homo sapiens, UniProt O60885) | HIGH |
| Cn1cc2c3c(c[nH]c3c1=O)CN(C(=O)NC1CCCC1)c1ccc(CS(C)(=O)=O)cc1-2 [Example 44] | BRD4 (BDI_K57-E168) (Homo sapiens, UniProt O60885) | LOW |
| Cn1cc2c3c(c[nH]c3c1=O)CN(C(=O)Oc1ccc(F)cc1)c1ccc(CS(C)(=O)=O)cc1-2 [Example 94] | BRD4 (BDI_K57-E168) (Homo sapiens, UniProt O60885) | MEDIUM |
| Cc1ccc(S(=O)(=O)N2Cc3c[nH]c4c(=O)n(C)cc(c34)-c3cc(CS(C)(=O)=O)ccc32)cc1 [Example 74] | BRD4 (BDI_K57-E168) (Homo sapiens, UniProt O60885) | HIGH |

###

Tested on: breast cancer cell line MX-1
Experiment: MX-1 cell line proliferation assay
Format: cell-based
Settings: MX-1 cells, 3-day proliferation assay, Cell Titer Glo; read-out: Cellular proliferation: EC50
pEC50: −log10 of the molar value.
METRIC_NAME: pEC50

| MOLECULE | METRIC_NAME | OBSERVED |
| --- | --- | --- |
| COC(=O)CCC(=O)N1Cc2c[nH]c3c(=O)n(C)cc(c23)-c2cc(CS(C)(=O)=O)ccc21 [Example 111] | pEC50 | 7.08 |
| Cn1cc(-c2[nH]c3c(=O)n(C)cc4c3c2CN(c2ccc(F)cc2F)c2ccc(S(C)(=O)=O)cc2-4)cn1 [Example 270] | pEC50 | 7.09 |
| CN1CCN(Cc2[nH]c3c(=O)n(C)cc4c3c2CN(c2ccc(Cl)cc2)c2ccccc2-4)CC1 [Example 146] | pEC50 | 6.91 |

###

In this section, each of the molecules is paired with its reported Ki.
Target: BRD4 (BDII_E352-M457) (Homo sapiens, UniProt O60885)
Construct: protocol; made in house
Test: TR-FRET bromodomain binding assay, second bromodomain of BRD4
Settings: TR-FRET assay protocol G (compound 0.92 μM-15 pM); 30 nM probe
METRIC_NAME: Ki

| MOLECULE | EXPERIMENTAL_SYSTEM | METRIC_NAME | OBSERVED |
| --- | --- | --- | --- |
| CCOC(=O)C1Nc2ncc(F)cc2-c2cn(C)c(=O)c3[nH]cc1c23 (stereo not drawn) [Example 39] | BRD4 (BDII_E352-M457) (Homo sapiens, UniProt O60885) | Ki | > 408 nM |
| Cn1cc2c3c(c[nH]c3c1=O)CN(S(=O)(=O)c1ccc(F)cc1)c1ccc(CS(C)(=O)=O)cc1-2 [Example 80] | BRD4 (BDII_E352-M457) (Homo sapiens, UniProt O60885) | Ki | > 408 nM |
| COc1ccc(S(=O)(=O)N2Cc3c[nH]c4c(=O)n(C)cc(c34)-c3cc(CS(C)(=O)=O)ccc32)cc1 [Example 76] | BRD4 (BDII_E352-M457) (Homo sapiens, UniProt O60885) | Ki | > 408 nM |
